Catalogue of abundance fitness readings, one per entry.
B1: Segment polarity protein dishevelled homolog DVL-3, residues 2 to 81; numbered along this chain, Q92997 (parent)
chain: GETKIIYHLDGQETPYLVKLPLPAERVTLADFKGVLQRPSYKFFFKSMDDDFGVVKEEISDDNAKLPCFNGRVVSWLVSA

# Variants of: B1
# ASSAY: abundance fitness (aPCA) (normalised: wild type 0, dead -1); higher = more abundant; growth selection in yeast, the domain comes from the species named
# STUDY_CONDITIONS: Homo sapiens
Respond with the number and no other words.

Take a look at these entries with their results.
| POLYMER_SEQUENCE | abundance fitness |
| --- | --- |
| GETKIIYHLDGQETPYLVKLPLPAERVTLADLKGVLQRPSYKFFFKSMDDDFGVVKEEISDDNAKLPCFNGRVVSWLVSA | -0.337 |
| GETKIIYHLDGQETPYLVKLPLPAERVTLADFHGVLQRPSYKFFFKSMDDDFGVVKEEISDDNAKLPCFNGRVVSWLVSA | -0.631 |
| GETKIIYHLDGQETPYLVKLPLGAERVTLADFKGVLQRPSYKFFFKSMDDDFGVVKEEISDDNAKLPCFNGRVVSWLVSA | -0.73 |

Request: Fill blank: measured abundance fitness of the variant GETKIIYHLDGQETPYLVKLPLPAERVTLADFKGVLQRPSYKMFFKSMDDDFGVVKEEISDDNAKLPCFNGRVVSWLVSA is ____.
Result: -0.291

Request: And what about the variant GETKIIYHLDGQETPYLVKLPLPAERVTLADFKGVLQRPSYKNFFKSMDDDFGVVKEEISDDNAKLPCFNGRVVSWLVSA ?
Result: -0.565

Request: // next record GETKIIYHLDGQETPYLVKLPLPAERVTLADFKGVLQRPSYKFFFKSMDHDFGVVKEEISDDNAKLPCFNGRVVSWLVSA
Result: -0.188

Request: Then GETKIIYHLDGQETPYLVKLPLNAERVTLADFKGVLQRPSYKFFFKSMDDDFGVVKEEISDDNAKLPCFNGRVVSWLVSA ?
Result: -0.833

Request: Try this variant too: GETKIIYHLDGQETPYLVKLGLPAERVTLADFKGVLQRPSYKFFFKSMDDDFGVVKEEISDDNAKLPCFNGRVVSWLVSA
Result: -0.56

Request: GETKIIYHLDGQETPYLVKLPLPAERVTLATFKGVLQRPSYKFFFKSMDDDFGVVKEEISDDNAKLPCFNGRVVSWLVSA ?
Result: -0.217

Request: Can you handle GETKIIYHLDGQETPYLVKLPLPAERVTLADFKGVLQRPSYKFFFKSMDDSFGVVKEEISDDNAKLPCFNGRVVSWLVSA next?
Result: 0.072

Request: Here is the next variant: GETKIIYHLDGQETPYLVKLPLPAERVTGADFKGVLQRPSYKFFFKSMDDDFGVVKEEISDDNAKLPCFNGRVVSWLVSA
Result: -0.643

Request: Also, GETKIIYHLDGQETPYLVKLPLPAERVTLADFKGVLQRPSYKFFFKSMDDDFGVVKEEISDDNAKLPCFNGRVVMWLVSA please.
Result: -0.726

Request: Entry to check: GETKIIYHLDGQETPYLVKLPLPAERVTLARFKGVLQRPSYKFFFKSMDDDFGVVKEEISDDNAKLPCFNGRVVSWLVSA
Result: -0.711

Request: Entry to check: GETKIIYHLDGQETPYLVKLPLPAERVTLADFKGVLQRPSYKFFFKSMDDDFGVVKEECSDDNAKLPCFNGRVVSWLVSA
Result: -0.593

Request: Now this one: GETKIIYHLDGQETPYLVKLPLPAERVTLADFKGVLQRPSYKFFFKSMDDDFGVVKEEISDDNAKYPCFNGRVVSWLVSA
Result: -0.508

Request: And the next one, GETKIIYHLDGQETPYLVKLPLPAEHVTLADFKGVLQRPSYKFFFKSMDDDFGVVKEEISDDNAKLPCFNGRVVSWLVSA ?
Result: -0.182

Request: Then GETKIIYHLDGQETPYLVKLPLPAEMVTLADFKGVLQRPSYKFFFKSMDDDFGVVKEEISDDNAKLPCFNGRVVSWLVSA ?
Result: -0.276

Request: Try GETKIIYHLDGQETPYLVKLPLPAERVTLADFKGVLQRPSYKFFFKSMDDDFGVVKEEIIDDNAKLPCFNGRVVSWLVSA next.
Result: -0.325

Request: What would you report for GETKIIYHLDGQETPYLVKLPLPAERVTLADFKGVLQRPSYKFFFKSMDDDFGVVKEEQSDDNAKLPCFNGRVVSWLVSA ?
Result: -1.11

Request: Ok, now GETKIIYHLDGQETPYLVKLPLPAERVTLLDFKGVLQRPSYKFFFKSMDDDFGVVKEEISDDNAKLPCFNGRVVSWLVSA
Result: -0.562

Request: Now the variant GETKIIYHLDGQETPYLVKLPLPAERVTLADFKGVLHRPSYKFFFKSMDDDFGVVKEEISDDNAKLPCFNGRVVSWLVSA
Result: -0.073

Request: Could you do the same for GETKIIYHLDGQETPYLVKLPLPAERVTLADFKGVLQRPSYKFFFKSMDDDFGVKKEEISDDNAKLPCFNGRVVSWLVSA , please?
Result: 0.199
